Ref: paper PMC7619385

# tested target: NLuc::LmxCLK1 (Leishmania mexicana, UniProt E9AMP2)
# method notes: cell-based
# Assay type: cell-based
# conditions: 10 µM compound, tracer SV366, promastigotes
property name: Target occupancy Run 1 (%)
Please state the figure in %; there is no need to write the unit.

Notebook: COC(=O)c1ccc2c(c1)NC(=O)/C2=C(\Nc1ccc(N(C)C(=O)CN2CCN(C)CC2)cc1)c1ccccc1 [Nintedanib (BIBF 1120)] , Target occupancy Run 1 read as -1.8

Notebook: O=C(NCc1ccccc1)c1csc(Nc2ccncn2)n1 [Thiazovivin] , Target occupancy Run 1 read as -3.6

Notebook: O=C1NC(=O)C(=Cc2ccc(-c3ccc(F)cc3)o2)S1 [CAY10505] , Target occupancy Run 1 read as -12.3

Notebook: COc1cccc(-c2cc(=O)c3ccccc3o2)c1N [PD98059] , Target occupancy Run 1 read as -16.6

Notebook: NC(=O)Nc1sc(-c2ccc(F)cc2)cc1C(N)=O [TPCA-1] , Target occupancy Run 1 read as 1.2

Notebook: C#Cc1cccc(Nc2ncnc3cc(OCCOC)c(OCCOC)cc23)c1.Cl [Erlotinib HCl (OSI-744)] , Target occupancy Run 1 read as -0.1

Notebook: CN(C)CCCn1cc(C2=C(c3c[nH]c4ccccc34)C(=O)NC2=O)c2ccccc21 [GF109203X] , Target occupancy Run 1 read as -5.7

Notebook: O=c1cc(-c2cccc3c2Sc2ccccc2S3)oc(N2CCOCC2)c1 [KU-55933 (ATM Kinase Inhibitor)] , Target occupancy Run 1 read as 4.0

Notebook: Nc1ncnc2c1c(-c1cnc3[nH]ccc3c1)nn2C1CCCC1 [PP121] , Target occupancy Run 1 read as -0.4

Notebook: COc1ccc(Cl)cc1NC(=O)Nc1cc(C)nc2ccccc12 [PQ 401] , Target occupancy Run 1 read as -4.0

Notebook: C[C@H](Nc1ncnc2nc[nH]c12)c1cc2cccc(Cl)c2c(=O)n1-c1ccccc1 [IPI-145 (INK1197)] , Target occupancy Run 1 read as -2.8

Notebook: N[C@@H]1CCCN(c2c(/C=C3\SC(=O)NC3=O)cccc2-c2ccccc2)C1 [AZD1208] , Target occupancy Run 1 read as 5.0

Notebook: CC[C@H](Nc1ncnc2[nH]cnc12)c1nc2cccc(F)c2c(=O)n1-c1ccccc1 [CAL-101 (Idelalisib)] , Target occupancy Run 1 read as 0.2

Notebook: COc1cc2ncnc(Nc3ccc(O)c(Br)c3)c2cc1OC [WHI-P154] , Target occupancy Run 1 read as 7.3

Notebook: COc1cc(Nc2ncc(F)c(Nc3ccc4c(n3)NC(=O)C(C)(C)O4)n2)cc(OC)c1OC [R406] , Target occupancy Run 1 read as 6.2

Notebook: CNc1nc(Nc2cnn([C@H]3CCN(C4COC4)C[C@@H]3F)c2Cl)ncc1C(F)(F)F [GNE-9605] , Target occupancy Run 1 read as 3.1

Notebook: Cc1ccc(NC(=O)c2cccc(N(C)C)c2)cc1NC(=O)c1ccc(O)cc1 [ZM 336372] , Target occupancy Run 1 read as -4.5

Notebook: CN1CC[C@H](c2c(O)cc(O)c3c(=O)cc(-c4ccccc4Cl)oc23)[C@H](O)C1.Cl [Flavopiridol HCl] , Target occupancy Run 1 read as 1.6

Notebook: Cc1ccc(S(=O)(=O)/C=C/C#N)cc1 [BAY 11-7082] , Target occupancy Run 1 read as -17.1

Notebook: C=CS(=O)(=O)NC1CCN(C(=O)CNc2cc(I)c(Cl)cc2OC)CC1 [K-Ras(G12C) inhibitor 9] , Target occupancy Run 1 read as -21.1

Notebook: C#Cc1cccc(Nc2ncnc3cc(OCCOC)c(OCCO)cc23)c1 [OSI-420] , Target occupancy Run 1 read as -6.8

Notebook: CNC(=O)c1ccccc1Nc1nc(Nc2ccc(N3CCOCC3)cc2OC)ncc1Cl [TAE226 (NVP-TAE226)] , Target occupancy Run 1 read as -26.7

Notebook: O=C(c1ccc(Nc2nccc(-c3cc4ccccc4s3)n2)cc1)N1CCC(N2CCCC2)CC1 [IKK-16 (IKK Inhibitor VII)] , Target occupancy Run 1 read as 10.2

Notebook: CC(C)(C)c1nc(-c2cccc(NS(=O)(=O)c3c(F)cccc3F)c2F)c(-c2ccnc(N)n2)s1 [Dabrafenib (GSK2118436)] , Target occupancy Run 1 read as 0.7

Notebook: COc1cc(Nc2c(C#N)cnc3cc(OCCCN4CCN(C)CC4)c(OC)cc23)c(Cl)cc1Cl [Bosutinib (SKI-606)] , Target occupancy Run 1 read as 7.7
